These entries and their values trace back to ChEMBL document CHEMBL3091306.

- System: 5-hydroxytryptamine receptor 1A (Homo sapiens, UniProt P08908)
- Sequence (P08908 whole entry): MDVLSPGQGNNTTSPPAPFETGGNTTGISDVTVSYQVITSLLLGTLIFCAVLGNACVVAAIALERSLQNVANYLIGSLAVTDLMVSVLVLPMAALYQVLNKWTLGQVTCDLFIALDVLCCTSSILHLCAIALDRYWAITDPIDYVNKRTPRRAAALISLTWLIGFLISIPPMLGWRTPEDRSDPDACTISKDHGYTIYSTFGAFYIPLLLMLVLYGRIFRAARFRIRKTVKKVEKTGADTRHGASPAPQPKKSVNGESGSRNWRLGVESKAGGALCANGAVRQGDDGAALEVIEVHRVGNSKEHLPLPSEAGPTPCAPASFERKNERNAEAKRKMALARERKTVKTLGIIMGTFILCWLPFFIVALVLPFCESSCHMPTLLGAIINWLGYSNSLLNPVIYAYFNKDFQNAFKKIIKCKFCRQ
- Method notes: Displacement of [3H]8-OH-DPAT from human 5-HT1A receptor expressed in HEK293 cells
Reported property: IC50 (nM)
Express your answer in nM, writing the number without its unit.

# Compound string, System, Unit abbrev, IC50
records = [
    ("Brc1ccc2[nH]cc(CCCN3CCN(CCCc4c[nH]c5ccc(Br)cc45)CC3)c2c1", "5-hydroxytryptamine receptor 1A (Homo sapiens, UniProt P08908)", "nM", 1200),
    ("Brc1ccc2[nH]cc(CCCN3CCN(CCCc4c[nH]c5ccccc45)CC3)c2c1", "5-hydroxytryptamine receptor 1A (Homo sapiens, UniProt P08908)", "nM", 15),
    ("COc1ccc2[nH]cc(CCCN3CCN(CCCc4c[nH]c5ccc(F)cc45)CC3)c2c1", "5-hydroxytryptamine receptor 1A (Homo sapiens, UniProt P08908)", "nM", 7200),
    ("COc1ccc2[nH]cc(CCCN3CCN(CCCc4c[nH]c5ccc(Br)cc45)CC3)c2c1", "5-hydroxytryptamine receptor 1A (Homo sapiens, UniProt P08908)", "nM", 128),
    ("COc1ccc2[nH]cc(CCCN3CCN(CCCc4c[nH]c5ccccc45)CC3)c2c1", "5-hydroxytryptamine receptor 1A (Homo sapiens, UniProt P08908)", "nM", 4500),
]

Next compound, IC50 to be filled in.
Entry "COc1ccc2[nH]cc(CCCN3CCN(CCCc4c[nH]c5ccc(OC)cc45)CC3)c2c1" under 5-hydroxytryptamine receptor 1A (Homo sapiens, UniProt P08908) had IC50 of 599
